B1: H2-Kb / Ed28 (parent complex)
chain 1: AQSVTQPDARVTVSEGASLQLRCKYSYFGTPYLFWYVQYPRQGLQLLLKYYPGDPVVQGVNGFEAEFSKSNSSFHLRKASVHWSDWAVYFCAVSPGSGGKLTLGAGTRLQVNL
chain 2: DSGVVQSPRHIIKEKGGRSVLTCIPISGHSNVVWYQQTLGKELKFLIQHYEKVERDKGFLPSRFSVQQFDDYHSEMNMSALELEDSAMYFCASSPRASDYTFGSGTRLLVI
chain 3: not shown
chain 4: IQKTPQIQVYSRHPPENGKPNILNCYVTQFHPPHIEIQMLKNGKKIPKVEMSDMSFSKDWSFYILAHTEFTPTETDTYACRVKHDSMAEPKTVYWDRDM
chain 5: SIINFEKL

# Variants of: B1
# experiment: % of reporter cells activated (NFAT-GFP), raw; further: test concentration or dose not given here
test.readout: ratio to parent

Below, each entry is followed by its recorded ratio to parent result.
>  <mutation.id>
chain 5 N4H

>  <numeric.value>
0.0455

$$$$
>  <mutation.id>
chain 5 K7L

>  <numeric.value>
0.244

$$$$
>  <mutation.id>
chain 5 I2M

>  <numeric.value>
0.857

$$$$
>  <mutation.id>
chain 5 F5M

>  <numeric.value>
0.741

$$$$
>  <mutation.id>
chain 5 I2P

>  <numeric.value>
1.2

$$$$

1 = chain 5 S1A
2 = chain 5 S1N
3 = chain 5 F5G
4 = chain 5 E6F
Req: // smallest ratio to parent at index 0, largest at the end Respond with the label ranking, as requested.
Resp: 4, 2, 3, 1

1 = chain 5 F5N
2 = chain 5 I3Q
Req: I need your help: which of the pair 1 , 2 has higher ratio to parent? Select an item and report its label.
Resp: 1
